# Target or test system: A17 RT (Human immunodeficiency virus type 1 group M subtype B, UniProt P04585, K690N/Y768C)
# Construct: A17 RT was employed in the assay
# Assay info: biochemical
pIC50: −log10 of the molar value.
# cutoff 6 applies to pIC50; >= gives yes (1), < gives no (0)

Consider the following illustrative entries.
COc1ccc(C#CC2(C(F)(F)F)OC(=O)Nc3ccc(Cl)cc32)cc1 (centres unmarked)
no (0)
O=C1Nc2ccc(Cl)cc2C(C#Cc2ccccc2)(C(F)(F)Cl)O1 (racemic)
yes (1)
C#CC1(c2ccccc2)OC(=O)Nc2ccc(Cl)cc21 (centres unmarked)
no (0)

Problem: Is it the case that CCCC1(C2CCCC2)OC(=S)Nc2ccc(Cl)cc21 (centres unmarked) has pIC50 reaching or exceeding 6?
Result: no (0)

Problem: Say whether CCC1(C(F)(F)F)OC(=O)Nc2ccc(Cl)cc21 (centres unmarked) shows pIC50 of 6 or more.
Result: no (0)

Problem: Form field: pIC50 at least 6? Entry: O=C1Nc2ccc(Cl)cc2C(CCCCl)(C(F)(F)F)O1 (centres unmarked)
Result: no (0)

Problem: Does pIC50 meet or surpass 6 for O=C1Nc2ccc(Cl)cc2C(C#CCO)(C(F)(F)F)O1 (centres unmarked) ?
Result: no (0)

Problem: Can C#CC1(C(F)(F)F)OC(=O)Nc2ccc(Cl)cc21 (racemic) be said to have pIC50 at or above 6?
Result: no (0)

Problem: State whether the measured pIC50 reaches 6, counting equality as reaching it, for CCCC1(C(C)(C)C)OC(=O)Nc2ccc(Cl)cc21 (centres unmarked)
Result: no (0)

Problem: For this molecule, is measured pIC50 6 or higher? O=C1Nc2ccc(Cl)cc2[C@](C#Cc2ccccc2)(C(F)(F)F)O1 [3(+)]
Result: no (0)

Problem: Has N#Cc1ccccc1C#CC1(C(F)(F)F)OC(=O)Nc2ccc(Cl)cc21 (racemic) a recorded pIC50 greater than or equal to 6?
Result: yes (1)

Problem: # check: pIC50 of CN(C)CC#CC1(C2CC2)OC(=O)Nc2ccc(Cl)cc21 (centres unmarked) is greater than or equal to 6
Result: no (0)
